# credit: ChEMBL document CHEMBL5678798

molecular target: UniProtKB O14965; assay: Inhibition of N-terminal 6His-tagged recombinant full-length human Aurora-A expressed in Sf21 cells by filter binding assay
Sequence (O14965 whole entry): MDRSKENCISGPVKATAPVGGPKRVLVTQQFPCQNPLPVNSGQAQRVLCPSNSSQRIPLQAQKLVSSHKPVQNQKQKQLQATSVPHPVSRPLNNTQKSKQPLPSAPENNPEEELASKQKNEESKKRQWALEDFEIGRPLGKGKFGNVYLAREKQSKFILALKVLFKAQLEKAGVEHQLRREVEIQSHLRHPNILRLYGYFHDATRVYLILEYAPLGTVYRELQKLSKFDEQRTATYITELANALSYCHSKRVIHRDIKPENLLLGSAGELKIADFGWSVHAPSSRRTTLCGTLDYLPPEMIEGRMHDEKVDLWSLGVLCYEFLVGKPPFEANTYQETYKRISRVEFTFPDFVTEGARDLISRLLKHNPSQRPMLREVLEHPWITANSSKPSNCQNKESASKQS
EXPERIMENTAL_READOUT: pIC50
Field pIC50 (float): negative decimal logarithm of the concentration in molar.

Query block: Query (compound): "CCc1cc(Nc2nccc(-c3c(-c4ccc(OC)c(C(=O)Nc5c(F)cccc5F)c4)nc4ccccn34)n2)c(OC)cc1N1CCC(N2CCN(S(C)(=O)=O)CC2)CC1" ; field requested: pIC50
Result block: 6.80

---

target: MAP kinase-activated protein kinase 2 (Homo sapiens); test: Inhibition of MAPKAPK2 (unknown origin)
Sequence (P49137 whole entry): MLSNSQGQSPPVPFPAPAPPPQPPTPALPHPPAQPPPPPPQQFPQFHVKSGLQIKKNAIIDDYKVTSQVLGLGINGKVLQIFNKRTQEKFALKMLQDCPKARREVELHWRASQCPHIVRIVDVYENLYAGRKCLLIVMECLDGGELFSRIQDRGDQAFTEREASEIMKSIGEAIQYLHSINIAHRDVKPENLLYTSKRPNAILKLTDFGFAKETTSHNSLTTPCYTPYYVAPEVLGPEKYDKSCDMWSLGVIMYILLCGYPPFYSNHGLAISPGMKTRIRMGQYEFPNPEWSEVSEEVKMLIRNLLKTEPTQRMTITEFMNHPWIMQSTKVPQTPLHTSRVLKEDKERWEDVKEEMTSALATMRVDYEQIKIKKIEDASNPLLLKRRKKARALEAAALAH
pIC50: −log10 of the molar value.
EXPERIMENTAL_READOUT: pIC50

Query block: Query (compound): "CCc1cc(Nc2nccc(-c3c(-c4ccc(OC)c(C(=O)Nc5c(F)cccc5F)c4)nc4ccccn34)n2)c(OC)cc1N1CCC(N2CCN(S(C)(=O)=O)CC2)CC1" ; field requested: pIC50
Result block: < 4.60

---

molecular target: Activin receptor type-2B (Homo sapiens, UniProt Q13705)
Sequence (Q13705 whole entry): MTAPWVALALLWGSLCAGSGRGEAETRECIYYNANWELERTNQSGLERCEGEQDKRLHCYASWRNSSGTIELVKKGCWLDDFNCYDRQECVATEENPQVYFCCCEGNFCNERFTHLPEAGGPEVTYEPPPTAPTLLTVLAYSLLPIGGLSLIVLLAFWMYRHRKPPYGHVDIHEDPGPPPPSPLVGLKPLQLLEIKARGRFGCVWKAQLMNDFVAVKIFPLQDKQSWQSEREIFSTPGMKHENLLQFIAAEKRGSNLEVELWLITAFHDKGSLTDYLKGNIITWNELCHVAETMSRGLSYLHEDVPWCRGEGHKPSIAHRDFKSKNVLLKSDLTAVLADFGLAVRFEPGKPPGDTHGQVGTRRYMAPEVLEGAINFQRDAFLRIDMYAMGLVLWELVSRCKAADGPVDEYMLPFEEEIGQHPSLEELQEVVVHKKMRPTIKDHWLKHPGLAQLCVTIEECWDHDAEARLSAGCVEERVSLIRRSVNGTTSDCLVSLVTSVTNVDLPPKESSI
pIC50: −log10 of the molar value.
EXPERIMENTAL_READOUT: pIC50

Query block: Query (molecule): "CCc1cc(Nc2nccc(-c3c(-c4ccc(OC)c(C(=O)Nc5c(F)cccc5F)c4)nc4ccccn34)n2)c(OC)cc1N1CCC(N2CCN(S(C)(=O)=O)CC2)CC1" ; field requested: pIC50
Result block: < 5.00

---

Target: Phosphatidylinositol 4,5-bisphosphate 3-kinase catalytic subunit delta isoform (Homo sapiens)
Sequence (O00329 whole entry): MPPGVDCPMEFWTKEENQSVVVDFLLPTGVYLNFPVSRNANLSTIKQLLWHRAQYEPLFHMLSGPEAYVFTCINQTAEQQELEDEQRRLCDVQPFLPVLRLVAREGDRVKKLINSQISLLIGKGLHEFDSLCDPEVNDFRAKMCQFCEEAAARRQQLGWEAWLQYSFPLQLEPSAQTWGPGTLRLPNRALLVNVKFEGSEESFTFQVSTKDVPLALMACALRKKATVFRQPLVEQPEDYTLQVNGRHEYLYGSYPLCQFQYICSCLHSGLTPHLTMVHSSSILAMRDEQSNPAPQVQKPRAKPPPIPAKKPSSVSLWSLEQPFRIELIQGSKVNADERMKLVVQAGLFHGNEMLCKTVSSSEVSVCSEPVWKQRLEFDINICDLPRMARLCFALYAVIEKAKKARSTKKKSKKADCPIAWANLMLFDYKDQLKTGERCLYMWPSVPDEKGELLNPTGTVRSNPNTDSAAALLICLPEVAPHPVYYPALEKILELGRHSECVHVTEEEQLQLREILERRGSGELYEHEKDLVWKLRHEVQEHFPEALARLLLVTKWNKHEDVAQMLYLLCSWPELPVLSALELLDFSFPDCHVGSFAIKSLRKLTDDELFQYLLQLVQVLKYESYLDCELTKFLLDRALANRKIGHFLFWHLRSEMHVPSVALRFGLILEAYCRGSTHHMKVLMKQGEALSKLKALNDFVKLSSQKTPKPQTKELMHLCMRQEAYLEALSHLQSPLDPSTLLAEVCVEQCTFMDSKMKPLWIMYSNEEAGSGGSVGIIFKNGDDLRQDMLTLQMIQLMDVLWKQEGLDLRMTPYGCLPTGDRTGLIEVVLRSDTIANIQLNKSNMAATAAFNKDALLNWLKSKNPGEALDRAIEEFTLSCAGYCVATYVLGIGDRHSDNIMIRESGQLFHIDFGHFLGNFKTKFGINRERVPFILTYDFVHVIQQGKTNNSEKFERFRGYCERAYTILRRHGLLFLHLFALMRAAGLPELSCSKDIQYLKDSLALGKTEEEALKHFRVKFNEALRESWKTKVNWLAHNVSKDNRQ
Test: Inhibition of PI3Kdelta (unknown origin)
EXPERIMENTAL_READOUT: IC50

Query block: Query (compound): "CCc1cc(Nc2nccc(-c3c(-c4ccc(OC)c(C(=O)Nc5c(F)cccc5F)c4)nc4ccccn34)n2)c(OC)cc1N1CCC(N2CCN(S(C)(=O)=O)CC2)CC1" ; field requested: IC50
Result block: > 10 µM

---

test: Antiproliferative activity against human HuNS1 cells assessed as reduction in cell viability after 72 hrs by CellTiter-Glo assay; format: functional, cell-based; details: HuNS1, 72 h
EXPERIMENTAL_READOUT: IC50

Query block: Query (compound): "CCc1cc(Nc2nccc(-c3c(-c4ccc(OC)c(C(=O)Nc5c(F)cccc5F)c4)nc4ccccn34)n2)c(OC)cc1N1CCC(N2CCN(S(C)(=O)=O)CC2)CC1" ; field requested: IC50
Result block: > 30 µM

---

test system: KARPAS-299; assay: Antiproliferative activity against human KARPAS-299 cells assessed as reduction in cell viability after 72 hrs by CellTiter-Glo assay; assay type: functional, cell-based; settings: KARPAS-299, 72 h
EXPERIMENTAL_READOUT: IC50

Query block: Param readout = IC50; param system = KARPAS-299; param query = "CCc1cc(Nc2nccc(-c3c(-c4ccc(OC)c(C(=O)Nc5c(F)cccc5F)c4)nc4ccccn34)n2)c(OC)cc1N1CCC(N2CCN(S(C)(=O)=O)CC2)CC1" ; response: value
Result block: > 30 µM

---

EXPERIMENTAL_READOUT: IC50 (µM)
Field: numeric (µM). Do not append units.

Query block: Param readout = IC50; param system = Vascular endothelial growth factor receptor 2 (Homo sapiens); param query = "CCc1cc(Nc2nccc(-c3c(-c4ccc(OC)c(C(=O)Nc5c(F)cccc5F)c4)nc4ccccn34)n2)c(OC)cc1N1CCC(N2CCN(S(C)(=O)=O)CC2)CC1" ; response: value
Sequence (P35968 whole entry): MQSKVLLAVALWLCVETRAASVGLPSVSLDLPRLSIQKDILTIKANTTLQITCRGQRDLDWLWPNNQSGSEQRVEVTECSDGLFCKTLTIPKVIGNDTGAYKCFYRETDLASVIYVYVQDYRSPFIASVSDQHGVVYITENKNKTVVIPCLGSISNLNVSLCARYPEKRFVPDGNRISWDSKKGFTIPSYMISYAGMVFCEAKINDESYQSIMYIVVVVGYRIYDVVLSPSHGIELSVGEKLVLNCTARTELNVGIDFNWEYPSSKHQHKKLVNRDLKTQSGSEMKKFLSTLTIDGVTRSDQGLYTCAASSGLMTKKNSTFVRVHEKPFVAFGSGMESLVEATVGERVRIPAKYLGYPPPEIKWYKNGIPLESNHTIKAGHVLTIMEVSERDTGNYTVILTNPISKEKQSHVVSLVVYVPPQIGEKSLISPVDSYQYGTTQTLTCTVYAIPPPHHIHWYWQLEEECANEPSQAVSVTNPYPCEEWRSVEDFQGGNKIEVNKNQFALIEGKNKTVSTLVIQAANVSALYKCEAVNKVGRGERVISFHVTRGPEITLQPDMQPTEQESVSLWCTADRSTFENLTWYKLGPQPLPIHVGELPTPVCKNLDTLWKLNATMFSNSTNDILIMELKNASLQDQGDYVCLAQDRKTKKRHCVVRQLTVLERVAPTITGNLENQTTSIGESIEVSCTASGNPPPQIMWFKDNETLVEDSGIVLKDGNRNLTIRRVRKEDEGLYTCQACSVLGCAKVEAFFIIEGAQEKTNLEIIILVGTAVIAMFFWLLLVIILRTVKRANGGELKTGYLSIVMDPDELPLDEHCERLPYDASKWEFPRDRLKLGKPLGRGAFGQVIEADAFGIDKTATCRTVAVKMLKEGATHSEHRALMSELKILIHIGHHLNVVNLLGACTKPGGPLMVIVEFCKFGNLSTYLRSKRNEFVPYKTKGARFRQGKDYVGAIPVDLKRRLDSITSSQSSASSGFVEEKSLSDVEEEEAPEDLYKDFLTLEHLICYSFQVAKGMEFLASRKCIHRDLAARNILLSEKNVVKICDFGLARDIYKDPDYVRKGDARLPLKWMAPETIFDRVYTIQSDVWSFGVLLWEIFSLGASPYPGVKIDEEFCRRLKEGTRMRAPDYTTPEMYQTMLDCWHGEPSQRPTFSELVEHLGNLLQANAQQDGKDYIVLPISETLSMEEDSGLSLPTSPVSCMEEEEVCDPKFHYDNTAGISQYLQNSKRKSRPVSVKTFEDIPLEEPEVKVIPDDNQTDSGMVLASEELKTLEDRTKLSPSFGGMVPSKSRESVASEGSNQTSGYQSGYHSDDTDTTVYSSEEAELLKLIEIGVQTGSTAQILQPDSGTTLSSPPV
Result block: 3.2

---

Target: Inhibitor of nuclear factor kappa-B kinase subunit alpha (Homo sapiens, UniProt O15111)
Sequence (O15111 whole entry): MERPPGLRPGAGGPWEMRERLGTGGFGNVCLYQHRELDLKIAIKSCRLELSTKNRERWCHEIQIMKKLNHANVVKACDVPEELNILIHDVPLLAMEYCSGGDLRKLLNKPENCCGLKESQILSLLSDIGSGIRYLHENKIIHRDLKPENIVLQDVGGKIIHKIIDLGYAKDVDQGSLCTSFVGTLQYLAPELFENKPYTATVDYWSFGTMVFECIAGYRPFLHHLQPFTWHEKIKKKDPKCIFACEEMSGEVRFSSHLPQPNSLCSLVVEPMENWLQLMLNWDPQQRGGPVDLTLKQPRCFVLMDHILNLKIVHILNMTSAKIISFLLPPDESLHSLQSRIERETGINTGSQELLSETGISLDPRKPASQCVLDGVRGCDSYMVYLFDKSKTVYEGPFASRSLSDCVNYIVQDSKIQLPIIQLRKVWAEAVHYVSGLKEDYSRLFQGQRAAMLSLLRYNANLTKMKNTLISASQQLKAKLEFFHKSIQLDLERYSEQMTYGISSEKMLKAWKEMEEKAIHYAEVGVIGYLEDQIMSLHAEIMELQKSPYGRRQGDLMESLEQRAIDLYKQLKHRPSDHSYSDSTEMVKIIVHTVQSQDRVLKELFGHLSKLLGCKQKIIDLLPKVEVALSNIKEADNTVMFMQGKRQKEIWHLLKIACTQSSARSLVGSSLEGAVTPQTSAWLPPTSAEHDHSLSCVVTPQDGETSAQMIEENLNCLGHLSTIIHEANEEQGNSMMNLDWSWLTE
Assay: Inhibition of IKK1 (unknown origin)
EXPERIMENTAL_READOUT: pIC50
Field pIC50 (float): negative decimal logarithm of the concentration in molar.

Query block: Query (molecule): "CCc1cc(Nc2nccc(-c3c(-c4ccc(OC)c(C(=O)Nc5c(F)cccc5F)c4)nc4ccccn34)n2)c(OC)cc1N1CCC(N2CCN(S(C)(=O)=O)CC2)CC1" ; field requested: pIC50
Result block: 4.89

---

system: SK-OV-3; assay: Antiproliferative activity against human SK-OV-3 cells assessed as reduction in cell viability after 72 hrs by CellTiter-Glo assay; type: functional, cell-based; conditions: SK-OV-3, 72 h
pIC50: −log10 of the molar value.
EXPERIMENTAL_READOUT: pIC50

Query block: Param readout = pIC50; param system = SK-OV-3; param query = "CCc1cc(Nc2nccc(-c3c(-c4ccc(OC)c(C(=O)Nc5c(F)cccc5F)c4)nc4ccccn34)n2)c(OC)cc1N1CCC(N2CCN(S(C)(=O)=O)CC2)CC1" ; response: value
Result block: < 4.70

---

target: Aurora kinase B (Homo sapiens)
Sequence (Q96GD4 whole entry): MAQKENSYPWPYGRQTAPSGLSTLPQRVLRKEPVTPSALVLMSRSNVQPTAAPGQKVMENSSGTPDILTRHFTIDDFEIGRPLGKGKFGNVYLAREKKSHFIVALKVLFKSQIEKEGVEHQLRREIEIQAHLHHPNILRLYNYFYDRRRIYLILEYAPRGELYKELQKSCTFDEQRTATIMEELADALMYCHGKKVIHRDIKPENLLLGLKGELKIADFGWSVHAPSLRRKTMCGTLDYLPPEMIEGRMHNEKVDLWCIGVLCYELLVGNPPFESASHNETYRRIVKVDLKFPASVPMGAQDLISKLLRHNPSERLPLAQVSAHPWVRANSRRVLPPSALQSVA
EXPERIMENTAL_READOUT: pIC50
Field pIC50 (float): negative decimal logarithm of the concentration in molar.

Query block: Query (molecule): "CCc1cc(Nc2nccc(-c3c(-c4ccc(OC)c(C(=O)Nc5c(F)cccc5F)c4)nc4ccccn34)n2)c(OC)cc1N1CCC(N2CCN(S(C)(=O)=O)CC2)CC1" ; field requested: pIC50
Result block: 5.40
